Entries annotated with measured koff
Target: T1, Dimeric monkey CD48-mFc (monkey)
T1 construct: Soluble monkey CD48 with a C-terminal Fc fusion [mFc]; the whole entry is the construct
T1 chain: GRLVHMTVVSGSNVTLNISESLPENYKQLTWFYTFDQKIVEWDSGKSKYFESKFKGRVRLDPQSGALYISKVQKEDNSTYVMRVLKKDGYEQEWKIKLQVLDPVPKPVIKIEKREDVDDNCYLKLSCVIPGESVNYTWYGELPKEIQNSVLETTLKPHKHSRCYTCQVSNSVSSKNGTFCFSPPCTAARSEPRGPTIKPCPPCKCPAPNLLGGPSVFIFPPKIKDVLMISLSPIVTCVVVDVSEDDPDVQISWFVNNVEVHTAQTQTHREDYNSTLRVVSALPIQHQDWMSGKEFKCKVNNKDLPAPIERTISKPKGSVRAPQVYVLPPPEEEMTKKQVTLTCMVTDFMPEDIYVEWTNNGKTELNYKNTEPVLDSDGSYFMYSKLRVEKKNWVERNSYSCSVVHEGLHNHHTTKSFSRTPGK
Assay: SPR (Biacore), antibody captured by anti-Fc, CD48 in solution, 25 C
Numeric only. Scale: s⁻¹

These solved cases illustrate the format of a correct answer.
INSERT INTO assay_data (binder, measurement_label, experimental_value) VALUES
  ('H4H1781P (antibody, human IgG4, V domains shown, Human IgG4 Fc (H4H)) VH: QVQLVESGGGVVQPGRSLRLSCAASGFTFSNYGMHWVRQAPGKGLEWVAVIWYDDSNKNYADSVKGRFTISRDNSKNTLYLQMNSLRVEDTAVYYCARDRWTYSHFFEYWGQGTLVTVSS VL: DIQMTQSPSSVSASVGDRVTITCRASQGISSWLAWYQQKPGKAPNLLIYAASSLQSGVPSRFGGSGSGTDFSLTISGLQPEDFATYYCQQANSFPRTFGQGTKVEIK', 'koff', '2.13e-05'),
  ('H4H1774P (antibody, human IgG4, V domains shown, Human IgG4 Fc (H4H)) VH: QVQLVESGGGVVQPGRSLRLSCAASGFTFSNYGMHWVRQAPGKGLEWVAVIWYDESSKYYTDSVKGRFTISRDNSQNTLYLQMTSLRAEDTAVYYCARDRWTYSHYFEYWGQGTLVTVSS VL: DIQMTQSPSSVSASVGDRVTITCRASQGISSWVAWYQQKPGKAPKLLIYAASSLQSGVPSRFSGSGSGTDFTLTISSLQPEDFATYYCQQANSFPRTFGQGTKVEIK', 'koff', '2.07e-05');

Please turn your attention to the following entry.
Input: Item under review: H4H1779P (antibody, human IgG4, V domains shown, Human IgG4 Fc (H4H)) VH: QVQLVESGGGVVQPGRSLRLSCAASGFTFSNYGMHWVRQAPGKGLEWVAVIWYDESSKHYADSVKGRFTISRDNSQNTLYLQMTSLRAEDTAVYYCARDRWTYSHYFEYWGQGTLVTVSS VL: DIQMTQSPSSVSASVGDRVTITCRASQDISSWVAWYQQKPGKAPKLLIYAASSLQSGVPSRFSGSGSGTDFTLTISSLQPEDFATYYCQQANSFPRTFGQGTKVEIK . Reported koff?
Output: 3.17e-05
